Values were extracted from patent EP4796538A1.

- Tested on: RET (G810S/M918T) (Homo sapiens, UniProt P07949, G810S/M918T)
- Construct: purchased Reaction Biology Corp
- Sequence (P07949 29-1114 G810S/M918T): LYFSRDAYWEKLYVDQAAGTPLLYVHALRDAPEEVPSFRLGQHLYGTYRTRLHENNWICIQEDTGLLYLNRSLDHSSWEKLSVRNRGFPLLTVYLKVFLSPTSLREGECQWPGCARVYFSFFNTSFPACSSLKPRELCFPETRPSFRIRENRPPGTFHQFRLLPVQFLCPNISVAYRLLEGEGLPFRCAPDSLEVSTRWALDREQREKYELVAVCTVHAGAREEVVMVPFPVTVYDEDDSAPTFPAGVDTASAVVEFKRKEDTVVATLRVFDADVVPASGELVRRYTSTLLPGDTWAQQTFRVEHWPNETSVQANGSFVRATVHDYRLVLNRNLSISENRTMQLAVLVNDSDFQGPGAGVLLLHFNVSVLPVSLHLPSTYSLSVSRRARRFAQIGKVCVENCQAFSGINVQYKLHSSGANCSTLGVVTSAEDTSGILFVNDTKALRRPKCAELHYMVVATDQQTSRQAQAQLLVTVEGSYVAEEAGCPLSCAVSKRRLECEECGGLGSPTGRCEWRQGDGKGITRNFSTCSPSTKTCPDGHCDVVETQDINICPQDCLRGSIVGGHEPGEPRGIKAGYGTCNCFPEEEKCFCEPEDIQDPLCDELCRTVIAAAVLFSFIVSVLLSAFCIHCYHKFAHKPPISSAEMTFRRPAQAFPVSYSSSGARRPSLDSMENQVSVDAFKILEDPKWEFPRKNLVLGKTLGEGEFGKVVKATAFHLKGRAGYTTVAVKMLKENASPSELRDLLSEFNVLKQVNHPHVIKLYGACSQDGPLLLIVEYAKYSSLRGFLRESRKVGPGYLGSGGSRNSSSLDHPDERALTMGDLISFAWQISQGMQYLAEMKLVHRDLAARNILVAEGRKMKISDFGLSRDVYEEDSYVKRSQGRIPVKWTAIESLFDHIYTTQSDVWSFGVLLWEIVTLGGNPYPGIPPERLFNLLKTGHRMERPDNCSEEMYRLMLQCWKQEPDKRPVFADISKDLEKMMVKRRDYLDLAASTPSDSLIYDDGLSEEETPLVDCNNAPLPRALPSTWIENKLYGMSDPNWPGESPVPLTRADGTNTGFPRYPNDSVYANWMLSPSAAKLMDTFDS
- Run description: Kinase panel inhibition, radiolabeled [γ-33P] ATP (Reaction Biology Corp)
- Type: biochemical
- Applied conditions: compound at 10 uM; ATP 1 µM; Data 1; read-out: % Enzyme Activity (relative to DMSO controls) RET (G810S/M918T) Data 1
Measurement name: remaining activity at 10 µM (%)

Below are worked cases with known answers.
The compound listed as CCNc1cc(Nc2cc(C)[nH]n2)c2nccnc2c1 has a reported remaining activity at 10 µM of 41.9

The compound listed as O=C(Nc1cc(-c2ccc(N3CC[C@H](NC(=O)c4ccccc4F)C3)nc2)c2nccnc2c1)c1ccccn1 has a reported remaining activity at 10 µM of 24.7

The compound listed as CCNc1cc(-c2ccc(N3CCN(Cc4ccc(Br)cc4)CC3)nc2)c2nccnc2c1 has a reported remaining activity at 10 µM of 1.23

[a] CNc1cc(-c2ccc(N3CC[C@H](NC(=O)c4ccccc4F)C3)nc2)c2nccnc2c1
[b] CC(C)CNc1cc(-c2ccc(N3CC(Oc4cccc(F)c4)C3)nc2)c2nccnc2c1
Lab note: check whether a or b has the lower measured remaining activity at 10 µM. Reply with the label of the item you choose.
a
